Assay: cytotoxicity in HPDE-C7 cells, cell-based, fluorescence, HTS (AID 430);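 note: cells exposed to compound for 48 hours before viability readout; 0% = vehicle and 100% = reference cytotoxic drug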
Conditions: HPDE-C7 pancreatic duct cells viability, at 10 µM
The campaign covered roughly 63,000 compounds. About 1,100 (1.7%) were called active. Cut-off read from the data, not from the text of the source: active = cytotoxicity above about 50%; inactive = the rest. This excerpt belongs to a sample that is enriched for actives. Entries with a potency or affinity are not part of this list.
// allowed return values: active, inactive

CCc1c(C)nc2ncnn2c1N1CCC(C(=O)Nc2cccc(C(C)=O)c2)CC1 : inactive

Please examine the following record next.
Tell me the assay call for `COc1cccc(-c2nnc(NC(=O)c3ccc(S(=O)(=O)N4CCOCC4)cc3)o2)c1` please.
inactive

###

Assay: cytotoxicity in HPDE-C7 cells, cell-based, fluorescence, HTS (AID 430)
Details: HPDE-C7 pancreatic duct cells viability, at 10 µM, hits give high values
About 1,100 (1.7%) of roughly 63,000 compounds were called active. The sample as a whole holds a higher share of actives than the screen did. Entries with a potency or affinity are not part of this list.
Could you please report measured cytotoxicity for the items listed next?
One number for each entry, in %.

Some compounds with known cytotoxicity results, for comparison:
CCOc1ccccc1NC(=O)CSc1nnc(CNC(=O)c2ccco2)o1 : 6.4
COC(=O)C1=C(CSCc2ccco2)NC(=O)NC1c1cc(C)ccc1C (centres undefined) : -3.6
COc1cc2[nH]c(=O)n(CCC(=O)N3CCN(c4cccc(C)c4C)CC3)c(=O)c2cc1OC : 0.4

# input compound: `Cc1c(-c2ccccc2)nc(N)c(C#N)c1-c1ccco1` ; wanted: its cytotoxicity
-4.2

###

Assay: cytotoxicity in HPDE-C7 cells, cell-based, fluorescence, HTS (AID 430)
Conditions: HPDE-C7 pancreatic duct cells viability, at 10 µM
About 1,100 (1.7%) of roughly 63,000 compounds were called active. Cut-off read from the data, not from the text of the source: active = cytotoxicity above about 50%; inactive = the rest. What follows is part of a selection rich in actives, with near analogues and random picks from the rest. Entries with a potency or affinity are not part of this list.
Answer with one of the outcomes y (active), n (inactive)

These solved cases illustrate the format of a correct answer.
CNS(=O)(=O)c1ccc(Oc2ccc(S(=O)(=O)NC)cc2)cc1 : n
Nn1c(Nc2ccccc2)nc2sc3c(c2c1=O)CCC3 : y
O=S(=O)(c1ccc(Oc2ccc(S(=O)(=O)N3CCOCC3)cc2)cc1)N1CCOCC1 : n
COc1ccccc1NCCC(=O)OCC(=O)Nc1ccc(Cl)cn1 : n
COc1ccc(OC)c(N/C(=N\c2nc(C)cc(C)n2)NC(=O)c2ccco2)c1 : n
O=C(NC1CCCC1)C1CC(=O)N(C2CCCCCCC2)C1 (centres undefined) : n

What was the test verdict on `CC(C)C(=O)Nc1ccc(NC(=O)c2ccco2)cn1` ?
n

# fetch the recorded call for `Cc1ccsc1-c1nc(CSCC(=O)NCc2ccc3c(c2)OCO3)c(C)o1` here
n

Which result was noted for this compound in the test: `COc1cccc(NC(=O)N2CCN(c3ccc(C(F)(F)F)cn3)CC2)c1`
n

###

Test: cytotoxicity in HPDE-C7 cells, cell-based, fluorescence, HTS (AID 430)
Conditions: HPDE-C7 pancreatic duct cells viability, at 10 µM
The whole screen tested about 63,000 compounds, of which about 1,100 (1.7%) were called active. Cut-off read from the data, not from the text of the source: active = cytotoxicity above about 50%; inactive = the rest. Many of the other results were omitted from the sample, so actives are more common in it than they were. Measured potencies and affinities stand elsewhere.
Just give me one of these, please: true (1) (active), false (0) (inactive)

CCOC(=O)/C=C(\C)Sc1cc(=O)oc2ccccc12 : true (1)
COc1cc2c(=O)n(Cc3ccccc3)c(=O)n(CC(=O)NCc3ccco3)c2cc1OC : false (0)
c1ccc(N(c2ccccc2)c2nc(N3CCOCC3)nc(N3CCOCC3)n2)cc1 : false (0)

Query: recorded result category for `COC(=O)c1c(NC(=O)c2ccc(Br)o2)sc(C)c1C` in this test
false (0)

Please let me know the test result on file for `O=C(CNC1CCCCCC1)Nc1ccc(S(=O)(=O)NC2CC2)cc1` .
false (0)

State the result this test recorded for `Cn1cc(/C=N/n2cnc3sc4c(c3c2=O)CCCC4)c2ccccc21` .
false (0)

Dear all, I need the recorded test outcome for `CCSc1nnc(NC(=O)CSc2nnc(Cc3cccn3C)n2-c2ccc(F)cc2)s1` , thank you.
true (1)

What outcome does the record of this test show for `CC(=O)N1CCc2cc(S(=O)(=O)CCC(=O)NCc3ccc4c(c3)OCO4)ccc21` ?
false (0)

###

Kindly supply the reported cytotoxicity values for the records listed here.
Assay: cytotoxicity in HPDE-C7 cells, cell-based, fluorescence, HTS (AID 430);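 note: cells exposed to compound for 48 hours before viability readout; 0% = vehicle and 100% = reference cytotoxic drug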
Conditions: HPDE-C7 pancreatic duct cells viability, at 10 µM, hits give high values
About 1,100 (1.7%) of roughly 63,000 compounds were called active. What follows is part of a selection rich in actives, with near analogues and random picks from the rest. Potency and affinity values are given separately.
Give bare numbers, in %.

CCN(Cc1ccccc1)Cc1cc(OC)cc(OC)c1 : 8
CCOC(=O)N1CCN(C(=O)CSc2nnc(Cn3c(=O)sc4ccccc43)n2C)CC1 : -4.9
O=P(c1ccccc1)(c1ccccc1)C(c1ccco1)N1CCOCC1 (stereo not drawn) : -5.8
O=C(NC1CCCCC1)c1ccc(S(=O)(=O)NCc2ccco2)cc1 : -1.9
COc1ccc2c(c1)c1ncnc(N3CCN(Cc4ccc5c(c4)OCO5)CC3)c1n2C : 54.9

I need cytotoxicity for every entry listed below, if you could help.
1. CCCCS(=O)(=O)NC1=NCN(CCO)CN1
2. Cc1nc(NC(=O)CSc2nc3cccnc3n2C2CCCCC2)sc1C
3. CN1CCN(CCCN2c3ccccc3Sc3ccc(Cl)cc32)CC1
4. Fc1ccc2[nH]c3c(N4CCN(c5ccccc5)CC4)ncnc3c2c1
5. CN1CCN(c2ncnc3c2[nH]c2ccc(F)cc23)CC1
6. c1ccc(Cn2nnc3c(N4CCN(Cc5ccc6c(c5)OCO6)CC4)ncnc32)cc1

[-7.4, 9.2, 75, 10.8, 6.4, 11.9]

###

Experiment: cytotoxicity in HPDE-C7 cells, cell-based, fluorescence, HTS (AID 430);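 note: cells exposed to compound for 48 hours before viability readout; 0% = vehicle and 100% = reference cytotoxic drug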
Conditions: HPDE-C7 pancreatic duct cells viability, at 10 µM
About 1,100 (1.7%) of roughly 63,000 compounds were called active. No stated cut-off is given here; in the data, active means cytotoxicity above about 50%; inactive means the rest. Only a selection was taken, and actives are over-represented in it overall. Potency and affinity values are given separately.
Answer with one of the outcomes active, inactive

For orientation, consider the following solved cases.
CN(Cc1cccs1)C(=O)COc1ccc(-c2nnco2)cc1 : inactive
COc1ccccc1N1CCN(Cc2cccc(OC)c2OC)CC1 : inactive
CCc1cccc(NC(=O)Cn2cccc2)c1 : inactive
COc1ccc(CCN2C(=NC(=O)CCC(=O)O)SC3CS(=O)(=O)CC32)cc1OC (stereo unspecified) : inactive
COc1ccc(Cn2c(C)nc3oc4cc(OC)ccc4c(=O)c3c2=O)cc1 : inactive
COc1ccc(C(=O)N2CCc3cc(OC)c(OC)cc3C2)cc1OC : inactive
CN(Cc1cnn(C)c1)C(=O)c1cc2ccccc2oc1=O : inactive
O=C(O)CCC(=O)N1CCc2cc(S(=O)(=O)N3CCN(c4ccc(F)cc4)CC3)ccc21 : inactive

How was CCOC(=O)CSC1=C(C#N)C(c2ccc(Cl)cc2)CC(=O)N1 (stereo unspecified) classified in this test?
inactive

# lookup: test call for Cc1ccc(CCNC(=O)C2CCCN(c3nc4ccccc4o3)C2)cc1 (stereo unspecified)
inactive

What call does the record list for `COc1cc(-c2ccc(NC(=O)CN3CCCCC3)c(OC)c2)ccc1NC(=O)CN1CCCCC1` ?
inactive

Record lookup: outcome of this test for `COc1cccc(CNC(=O)Cn2c(=O)oc3ccccc32)c1OC` ?
inactive

Hi, do you know how Cc1ccc(NC(=O)CSC2=C(C#N)C(c3ccco3)C3=C(CC(C)(C)CC3=O)N2)cc1 (stereo unspecified) came out in this test?
active

###

Experiment: cytotoxicity in HPDE-C7 cells, cell-based, fluorescence, HTS (AID 430);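 note: cells exposed to compound for 48 hours before viability readout; 0% = vehicle and 100% = reference cytotoxic drug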
Details: HPDE-C7 pancreatic duct cells viability, at 10 µM, hits give high values
Among all 63,000 compounds or so, about 1,100 (1.7%) were called active. This is one part of a sample in which actives are shown more often than they occur. Entries with a potency or affinity are not part of this list.
property.label: cytotoxicity

// each listed compound needs a value for cytotoxicity
1. Cc1csc2ncc(C(=O)Nc3ccc4c(c3)OCCO4)c(=O)n12
2. CCCCCC(=O)O[C@]1(C(C)=O)CC[C@H]2[C@@H]3CCC4=CC(=O)CC[C@]4(C)[C@H]3CC[C@@]21C
3. Cc1csc2ncc(C(=O)Nc3ccccc3F)c(=O)n12
4. Oc1ccccc1-c1cc(-c2ccccc2Cl)[nH]n1
5. FC(F)(F)c1cc(-c2ccco2)nc(-n2cnc3ccccc32)n1
6. Cc1nc2c(C(=O)O)cnn2c(C)c1Cc1ccccc1F

["-20.4% (inactive)", "116% (active)", "51.2% (active)", "-4.7% (inactive)", "0% (inactive)", "-26.4% (inactive)"]

Hey, quick one: what's cytotoxicity for each of these?
1. Cc1ccccc1-c1cc(-c2ccccc2O)n[nH]1
2. CC(C)c1nnc(NC(=O)CCS(=O)(=O)c2nc(-c3cccs3)cc(C(F)(F)F)n2)s1
3. O=C(CN1CCN(C(=O)c2ccco2)CC1)Nc1ccc2c(c1)OCCO2

1: 25.4% (inactive); 2: 87% (active); 3: -13.8% (inactive)

Your task in this section: give cytotoxicity for each listed record.
1. O=C(NCc1cccnc1)C1CC(=O)N(c2ccc(Cl)cc2)C1 (centres undefined)
2. Cc1ccccc1Cc1c(C)nc2c(C(=O)N3CCN(Cc4ccc5c(c4)OCO5)CC3)cnn2c1C
3. FC(F)(F)c1cc(-c2ccco2)nc(-n2nnc3ccccc32)n1
4. Cc1csc2ncc(C(=O)NCc3ccc4c(c3)OCO4)c(=O)n12

1: -7% (inactive); 2: -6.7% (inactive); 3: 5.9% (inactive); 4: 67.4% (active)

Bench note: what cytotoxicity did `N#Cc1nc(-c2ccc(OCc3ccccc3)cc2)oc1N1CCOCC1` show?
14.5% (inactive)
